Cited source for all entries: patent US20050208146A1

assay-text: clinical
setup-conditions: human, in vivo, Absolute bioavailabiity of irinotecan, range
measured-quantity: bioavailability

// `CCc1c2c(nc3ccc(OC(=O)N4CCC(N5CCCCC5)CC4)cc13)-c1cc3c(c(=O)n1C2)COC(=O)[C@]3(O)CC` : bioavailability value = 7.1 to 96%

---

assay-text: clinical
setup-conditions: human, plasma, po, 60 mg/m^2/daily
measured-quantity: AUC(0-inf) (ng·h/mL)
Just the number in ng·h/mL, nothing appended.

// `CCc1c2c(nc3ccc(OC(=O)N4CCC(N5CCCCC5)CC4)cc13)-c1cc3c(c(=O)n1C2)COC(=O)[C@]3(O)CC` : AUC(0-inf) value = 7320

---

assay-text: clinical
setup-conditions: human, in vivo, iv, 60 mg/m2, Cmax, range
Experimental: The protocol had two stages, Stage A directed to dose escalation and Stage B directed to pharmacokinetics and bioavailability measurement. Patients were treated as in Table 3. […] MTD is defined as the dose level below which 2/3 or preferably 2/6 patients experience DLT. In addition, evidence of antitumor activity can be evaluated.
measured-quantity: Cmax

// `CCc1c2c(nc3ccc(OC(=O)N4CCC(N5CCCCC5)CC4)cc13)-c1cc3c(c(=O)n1C2)COC(=O)[C@]3(O)CC` : Cmax value = 416 to 897 ng/mL

---

assay-text: clinical
setup-conditions: human, in vivo, po, absolute bioavailability (mean±SD)
measured-quantity: bioavailability (%)
Just the number in %, nothing appended.

// CCc1c2c(nc3ccc(OC(=O)N4CCC(N5CCCCC5)CC4)cc13)-c1cc3c(c(=O)n1C2)COC(=O)[C@]3(O)CC [irinotecan] : bioavailability value = 25

---

assay-text: clinical
setup-conditions: human, in vivo, iv, 60 mg/m2, AUC0-inf, range
measured-quantity: AUC(0-inf)

// `CCc1c2c(nc3ccc(OC(=O)N4CCC(N5CCCCC5)CC4)cc13)-c1cc3c(c(=O)n1C2)COC(=O)[C@]3(O)CC` : AUC(0-inf) value = 1720 to 4790 ng·h/mL

---

assay-text: clinical
setup-conditions: human, in vivo, iv
measured-quantity: Cmax (ng/mL)
Just the number in ng/mL, nothing appended.

// CCc1c2c(nc3ccc(OC(=O)N4CCC(N5CCCCC5)CC4)cc13)-c1cc3c(c(=O)n1C2)COC(=O)[C@]3(O)CC [irinotecan] : Cmax value = 1500

---

assay-text: Pharmacokinetics and absolute bioavailability at MTD, IV/oral cross-over in patients
setup-conditions: human, in vivo, po, 60 mg/m2, Cmax, median, plasma, irinotecan 60 mg/m^2 PO, N=14
measured-quantity: Cmax (ng/mL)
Just the number in ng/mL, nothing appended.

// `CCc1c2c(nc3ccc(OC(=O)N4CCC(N5CCCCC5)CC4)cc13)-c1cc3c(c(=O)n1C2)COC(=O)[C@]3(O)CC` : Cmax value = 60.1

---

assay-text: clinical
setup-conditions: human, plasma, po, 60 mg/m^2/daily
measured-quantity: Cmax (ng/mL)
Just the number in ng/mL, nothing appended.

// CCc1c2c(nc3ccc(OC(=O)N4CCC(N5CCCCC5)CC4)cc13)-c1cc3c(c(=O)n1C2)COC(=O)[C@]3(O)CC [irinotecan] : Cmax value = 73.1

---

assay-text: clinical
setup-conditions: human, in vivo, po, 60 mg/m2, AUC0-inf, range
measured-quantity: AUC(0-inf)

// `CCc1c2c(nc3ccc(OC(=O)N4CCC(N5CCCCC5)CC4)cc13)-c1cc3c(c(=O)n1C2)COC(=O)[C@]3(O)CC` : AUC(0-inf) value = 167 to 2500 ng·h/mL
